The origin of these recorded values is PubChem BioAssay AID1621.

# MEASUREMENT NOTES: West Nile virus antiviral activity, cell-based, CPE readout (AID 1621)
# SETUP CONDITIONS: West Nile virus-infected cells, at 10 µM, active compounds read high
About 60 (0.02%) of roughly 290,000 compounds were called active. Roughly 1% stayed inconclusive and do not appear here. The list is a sample of the results. Potency and affinity values are given separately.
PROPERTY MEASURED: CPE inhibition (%)
Quick note: give the figure in %, leave out the unit.

Below, each entry is followed by its recorded CPE inhibition result.
COc1ccc2cc(-c3cc(C(=O)OCC(=O)Nc4c(C)n(C)n(-c5ccccc5)c4=O)c4ccccc4n3)ccc2c1	-0.17
Cc1ccc2[nH]c(=O)c(CN(CCCN(C)C)C(=O)Nc3cccc(Cl)c3)cc2c1	-1.48

// field: CPE inhibition; key: Cc1ccc2cc(CN(CCN(C)C)C(=O)Nc3ccc(Cl)cc3)c(=O)[nH]c2c1 ; value = 2.9

// CPE inhibition value for Cc1c(NC(=O)COC(=O)c2cc(-c3cccc4ccccc34)nc3ccccc23)c(=O)n(-c2ccccc2)n1C : -0.96

* * *

Listed next: entries and their corresponding CPE inhibition.
# MEASUREMENT NOTES: West Nile virus antiviral activity, cell-based, CPE readout (AID 1621)
# SETUP CONDITIONS: West Nile virus-infected cells, at 10 µM, active compounds read high
Hit rate of the full screen: of about 290,000 compounds, about 60 (0.02%) were called active. About 1% were inconclusive and are not listed. A selection follows. Results with a measured potency or affinity are listed apart.

Please review the following examples before continuing.
CCN(CC)CCNC(=O)c1cc2c(-c3cccc(OC)c3)nn(C)c2s1	10.3% (inactive)
Cc1[nH]c(=O)c(C#N)c(C)c1CCC(=O)NCc1ccc(Cl)cc1	0.96% (inactive)
COC(=O)c1c(NC(=O)C(C)(C)C)sc2c1C(C(=O)OC)CC2 (stereo unspecified)	-0.06% (inactive)
NC(=O)c1ccc(NC(=O)CSc2nnc(-c3cccnc3)n2Cc2ccco2)cc1	-0.08% (inactive)

response.value for COC(=O)c1c(NC(=O)C(C)C)sc2c1C(C(=O)OC)CC2 (stereo unspecified) (field: CPE inhibition) = 1.21% (inactive)

Note to self: CPE inhibition recorded for CN1C(=O)c2ccc(C(=O)NCc3ccco3)cc2C1=O was 1.39% (inactive)

* * *

# MEASUREMENT NOTES: West Nile virus antiviral activity, cell-based, CPE readout (AID 1621)
# SETUP CONDITIONS: West Nile virus-infected cells, at 10 µM, active compounds read high
The campaign covered roughly 290,000 compounds. About 60 (0.02%) were called active. Inconclusive results (about 1%) are left out. Only a sample is shown. Entries with a potency or affinity are not part of this list.
The reader will find reported CPE inhibition values listed item by item below.
Output spec: scalar in %, unitless text.

O=C(NC1CCCC1)C(c1cccs1)N(CC1CCCO1)C(=O)Cc1cccs1 (stereo not given)	-0.52
Cc1cnc(NC(=O)Cc2cccs2)s1	0.29
COc1ccc(-c2noc(N3CCCC(C(=O)Nc4cc(F)ccc4F)C3)n2)cc1 (stereo not given)	-0.21

CPE inhibition reading for CCc1cccc(NC(=O)C2CCCN2S(=O)(=O)c2cccc3cccnc23)c1 (stereo not given) : -0.25

CPE inhibition for COc1cc(NC(=O)COC(=O)CCc2cc(OC)c(OC)c(OC)c2)cc(OC)c1 is 1.02

Input Cc1ccc(NC(=O)C(C)N2C(=O)c3ccccc3C2=O)cc1C (stereo not given) . Output CPE inhibition: 0.2

For this compound ( COc1ccc(-c2nc3ccc(C(=O)NCCCN4CCOCC4)cc3nc2-c2ccc(OC)cc2)cc1 ), measured CPE inhibition is 0.5

Noted for CCn1c(SCC(=O)C(C)(C)C)nnc1-c1cccnc1 : its CPE inhibition reads -0.07

Notebook: COc1ccc(CNC(=O)CCN2C(=O)c3ccncc3C2=O)cc1OC , CPE inhibition read as 0.59

Entry C/C(=N\NC(=O)c1nn(C)c(C)c1Br)c1ccc(NC(=O)c2ccc(C)s2)cc1 , CPE inhibition reported as -0.9

* * *

# MEASUREMENT NOTES: West Nile virus antiviral activity, cell-based, CPE readout (AID 1621)
# SETUP CONDITIONS: West Nile virus-infected cells, at 10 µM, active compounds read high
The campaign covered roughly 290,000 compounds. About 60 (0.02%) were called active. Roughly 1% stayed inconclusive and do not appear here. A selection follows. Results with a measured potency or affinity are listed apart.
Reported CPE inhibition by item:
// units = %; emit number, no label

Worked examples follow.
CCOC(=O)c1c(N)c2cc([N+](=O)[O-])ccc2n1C	0.7
COc1ccc(-c2csc(N(CCCN(C)C)C(=O)c3ccccc3F)n2)cc1	-0.14
CCC(C)C(=O)N1CCCC(c2nc(-c3cccs3)no2)C1 (centres undefined)	-0.34
COc1cc(C(=O)N2CCCN(c3nc4cc(C)ccc4cc3C#N)CC2)cc(OC)c1OC	0.84
O=C(NCc1cccs1)c1cc2c(s1)-c1ccccc1OC2	0.12

Field CPE inhibition (entry CC(C(=O)NC(C)(C)C)N1C(=O)c2cccc3cccc(c23)C1=O (centres undefined) ) reads -0.58

# compound Cc1ccc2nc(-c3ccc(NC(=O)CCN4C(=O)c5ccccc5C4=O)cc3)sc2c1 ; its CPE inhibition = -0.32

* * *

# MEASUREMENT NOTES: West Nile virus antiviral activity, cell-based, CPE readout (AID 1621)
# SETUP CONDITIONS: West Nile virus-infected cells, at 10 µM, active compounds read high
Out of some 290,000 compounds screened, about 60 (0.02%) were called active. Inconclusive results (about 1%) are left out. Only a sample is shown. Measured potencies and affinities stand elsewhere.
PROPERTY MEASURED: CPE inhibition

CC(=O)Oc1ccc2occ(-c3ccccc3)c2c1	-0.4% (inactive)
CCOCC(=O)Nc1cccc(SC)c1	0.36% (inactive)
O=C(CSc1nc2ccccc2c(=O)n1-c1ccc(F)cc1)Nc1ccc(N2CCOCC2)cc1	-1.03% (inactive)
COCCCNC(=S)N1CCCN(c2nc3cc(C)ccc3cc2C#N)CC1	-0.77% (inactive)
O=C(NCC(c1cccnc1)N1CCOCC1)NC1CCCCC1 (configuration not stated)	0.45% (inactive)

The molecule CN(Cc1ccon1)C(=O)CCc1nnc(Cc2ccc(-c3ccccc3)cc2)o1 showed CPE inhibition equal to -0.95% (inactive)

What the record says about Cc1cccc(-n2c(C)cc(C)c(C#N)c2=O)c1 : CPE inhibition is 0.53% (inactive)

Recorded result, CCCN(CCC)CCCNC(=S)Nc1ccc2nc(N3CCN(C)CC3)cc(C)c2c1 , CPE inhibition: 0.29% (inactive)

Reported CPE inhibition ( NCCNC(=O)c1c(NC(=O)c2ccccc2)sc2c1CCCC2 ) = -0.62% (inactive)

Form: molecule = O=C(NNc1ccccc1[N+](=O)[O-])Nc1ccc(F)cc1F ; CPE inhibition = -0.58% (inactive)

Data point: N=C1C(c2nc(-c3ccc(F)cc3)cs2)=C(O)CN1CCCN1CCOCC1 ; CPE inhibition = 2.36% (inactive)

Memo: O=C(NCCCN1CCOCC1)c1cc2c(s1)-c1ccccc1OC2 , reported CPE inhibition: 0.21% (inactive)

Record summary for COc1ccc(CCN(C)C(=O)c2cccc(S(=O)(=O)NCc3ccccc3)c2)cc1OC : reported CPE inhibition = -1.05% (inactive)

Memo: COc1ccc(-c2csc(N(CCCN(C)C)C(=O)c3cccs3)n2)cc1 , reported CPE inhibition: 0.38% (inactive)

* * *

# MEASUREMENT NOTES: West Nile virus antiviral activity, cell-based, CPE readout (AID 1621)
# SETUP CONDITIONS: West Nile virus-infected cells, at 10 µM, active compounds read high
About 60 (0.02%) of roughly 290,000 compounds were called active. Not shown: some 1% with an inconclusive outcome. Only a sample is shown. Potency and affinity values are given separately.
Quick reference: CPE inhibition of the listed items.
// units = %; emit number, no label

Study these solved cases before continuing.
CN(C)CCCNc1nc(N)c([N+](=O)[O-])c(NC2CCCCC2)n1	1.01
Cc1cc(C)c(S(=O)(=O)n2c([N+](=O)[O-])cnc2C)c(C)c1	1.59
Nc1nc(NCCO)nc(NC2CCCCC2)c1[N+](=O)[O-]	1.53
CCSc1nnc(Nc2ccccc2)s1	0.4
Cc1ccc(-n2c(SCC(=O)Nc3ccc(N4CCOCC4)cc3)nc3ccccc3c2=O)cc1	12.4
CCN1CCN(c2ccc(S(=O)(=O)N3CCCCC3)cc2NC(=O)Cc2ccc(OC)cc2)CC1	0.99
CN1CCN(CC(=O)Nc2sc3c(c2C(=O)Nc2ccccc2)CCCC3)CC1	1.23
O=C(NC1CC1)c1cc2c(s1)-c1ccccc1OC2	1.08

O=C(Nc1ccccc1N1CCCC1)c1ccccc1Cl yielded CPE inhibition of -1.13

Sample CCCN(CCC)CCCNC(=S)Nc1ccc2nc(N3CCN(CC)CC3)cc(C)c2c1 ; CPE inhibition observed: 3.38
